test: Quantitative highthroughput screen to assess conditional lethalithy of P12 Ichikawa cells grown in RPMI1640 with dialyzed fetal bovine serum (RPMI+ds) (AID 1963880); details: ATP luminescence, 48 h; P12-Ichikawa viability; series mostly up to 45.8 µM; also: nearly all actives have a fitted effect of over 35% in size; also: potency is read from the fitted curve at half-maximal effect
Inconclusive results are not listed. Active and inactive are the calls of the source. Calls follow the shape of the dose curve; as a rule, active = well fitted cell-killing curve with a large enough effect; inconclusive = small, poorly fitted or top-dose-only effect; inactive = flat fitted curve, though single readings scatter.
Measured endpoint: Potency

NCc1ccc(OCCCc2sc(-c3ccc4c(c3)/C(=N/Nc3nc5ccccc5s3)CCC4)nc2C(=O)O)cc1    0.0093 µM (active)
CN(C)CCC=C1c2ccccc2COc2ccc(CC(=O)O)cc21    inactive
CC(C)c1ccccc1Cc1cc(C(=O)Nc2ccc(S(=O)(=O)c3ccccc3C(C)(C)C)cc2)c(O)c(O)c1O    inactive
NS(=O)(=O)NCCNc1nonc1C(=Nc1ccc(F)c(Br)c1)NO    8.31 µM (active)
C=CC(=O)Nc1ccc2ncnc(Nc3ccc(OCc4cccc(F)c4)c(Cl)c3)c2c1    7.43 µM (active)

Provide each entry's Potency from the list below.
1. N#Cc1c(O)c2c(-c3ccc(-c4ccccc4O)cc3)csc2[nH]c1=O
2. CN1c2ccccc2C(=O)N2CCc3c([nH]c4ccccc34)C21 (stereo not drawn)
3. Cc1cc(O)c2c(c1)C(=O)c1cc(O)cc(O)c1C2=O
4. Cc1ccc(C(=O)N(CCCN)[C@@H](c2nc3cc(Cl)ccc3c(=O)n2Cc2ccccc2)C(C)C)cc1
5. CN1CCC(=C2c3ccccc3C=Cc3ccccc32)CC1
6. CC(C=CC=C(C)C=CC1=C(C)CCCC1(C)C)=CC=CC=C(C)C=CC=C(C)C=CC1=C(C)CCCC1(C)C
7. N=C(N=C(N)N)N1CCOCC1
8. CCC[C@@H]1C[C@@H](C(=O)N[C@@H]([C@H]2O[C@H](SC)[C@H](O)[C@@H](O)[C@H]2O)[C@@H](C)O)N(C)C1

Ans:
["inactive", "inactive", "inactive", "0.0021 µM (active)", "inactive", "inactive", "inactive", "inactive"]

Provide each entry's Potency from the list below.
1. Cc1ccccc1N1C(=O)c2cc(S(N)(=O)=O)c(Cl)cc2NC1C (stereo not drawn)
2. C[C@@H]1O[C@@H](O[C@H]2CC[C@@]3(C)[C@H](CC[C@@H]4[C@H]3C[C@@H](O)[C@]3(C)[C@@H](C5=CC(=O)OC5)CC[C@]43O)C2)C[C@H](O)[C@@H]1O[C@H]1C[C@H](O)[C@H](O[C@H]2C[C@H](O)[C@@H](O)[C@@H](C)O2)[C@H](C)O1 (stereo in doubt)

Ans:
1: inactive; 2: 0.191 µM (active)
